- Target or system: PHOSPHO1 (Homo sapiens)
- Sequence (Q8TCT1 1-292 isoform Q8TCT1-3): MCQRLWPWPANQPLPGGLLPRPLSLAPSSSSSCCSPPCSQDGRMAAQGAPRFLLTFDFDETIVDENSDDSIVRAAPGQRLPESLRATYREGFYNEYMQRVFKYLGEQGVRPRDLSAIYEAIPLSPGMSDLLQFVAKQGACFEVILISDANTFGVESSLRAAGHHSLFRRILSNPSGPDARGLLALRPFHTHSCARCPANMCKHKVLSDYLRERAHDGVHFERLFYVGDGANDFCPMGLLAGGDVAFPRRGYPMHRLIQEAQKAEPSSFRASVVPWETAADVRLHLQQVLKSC
Observation type: pKi
Numbers only, as −log10 of the molar value.

# pKi (compound: Cc1c(OCC(F)(F)F)ccnc1C[S+]([O-])c1nc2ccccc2[nH]1 (stereo not shown) ) is 6.80

Hey, just so you know, these numbers are from paper PMC3562655.
